Measured Quantity: logP
The answer should be written as a number, with no unit following it.

compound=COc1ccc(N2C(N)=NC(N)=NC2(C)C)cc1 test_value=0.4
compound=S=C=Nc1ccc(-c2ccc(N=C=S)cc2)cc1 test_value=5.5
compound=O=C1O[C@@H](O)c2ccccc21 test_value=0.57
compound="CCC(C)C(NC(C)=O)C(N)=O (stereo unspecified)" test_value=-0.03
compound=O=[N+]([O-])C=Cc1cc([N+](=O)[O-])ccc1Cl test_value=2.23
compound=COc1cccc(/C=C/[N+](=O)[O-])c1 test_value=2.37
compound="O=C(NCC(O)c1ccc([N+](=O)[O-])cc1)C(F)(F)F (stereo unspecified)" test_value=1.46
compound=Nc1cnccn1 test_value=-0.07
compound=COCC1=Nc2cc(Cl)ccc2S(=O)(=O)N1 test_value=1.12
compound=CN(C)C(=O)Nc1ccc(Br)cc1 test_value=2.19

// moving on: another record for logP
Q) // query logP value for entry O=NN(CCCl)C(=O)NC1CCCCC1O (stereo unspecified)
A) 1.75

----------
# logP values compiled below
Just the number, please, no unit after it.

compound=CC1=Nc2cc(Br)ccc2S(=O)(=O)N1 measured_quantity=logP test_value=1.37

Q) Consider the compound shown here: `CN(C)C1=NC(=O)C(=Cc2ccc([N+](=O)[O-])o2)S1` What is its recorded logP?
A) 1.14

Q) Which measured logP value corresponds to CCC(C)C1=Nc2ccc(Cl)cc2S(=O)(=O)N1 (stereo not drawn) ?
A) 2.47
